Tested on: non-infected MT-4 cells
Assay: MTT method using non-infected MT-4 cells (cytotoxicity)
Type: cell-based
Settings: non-infected MT-4 cells, MTT, five days
reported property: CC50

# input Which CC50 is reported for this compound? C#C[C@]1(CO)O[C@@H](n2cnc3c(N)nc(N)nc32)C[C@@H]1O
# output 900 nM

###

Test system: HIV-1 M184V drug-resistant strain
Assay: MAGI assay using HeLa CD4/LTR-beta-Gal cells, drug-resistant strain M184V
Type: cell-based
Settings: Human immunodeficiency virus 1, HeLa, 48 h, read-out: Anti-HIV-1M184V activity (EC50, μM)
reported property: EC50 (µM)
// note: answer is a bare numeric in µM

Below: 4 molecules and their reported EC50.
| molecule | observed |
| --- | --- |
| C#C[C@]1(CO)O[C@@H](n2cnc3c(N)ncnc32)C[C@@H]1O [EdAdo, 2′-deoxy-4′-C-ethynyladenosine, reference compound] | 0.047 |
| C#C[C@@]1(CO)C=C[C@H](n2cnc3c(N)nc(F)nc32)O1 | 1.8 |
| N#C[C@]1(CO)O[C@@H](n2cnc3c(N)nc(F)nc32)C[C@@H]1O | 4.8 |
| C#C[C@]1(CO)O[C@@H](n2cnc3c(N)nc(F)nc32)C[C@@H]1O | 0.00311 |

# input Reported EC50 for HIV-1 M184V drug-resistant strain, given C#C[C@]1(CO)O[C@@H](n2cnc3c(N)nc(Cl)nc32)C[C@@H]1O ?
# output 0.01

# input Reported EC50 for HIV-1 M184V drug-resistant strain, given C#C[C@]1(CO[PH](=O)O)O[C@@H](n2cnc3c(N)nc(F)nc32)C[C@H]1O ?
# output 0.062

###

Tested on: HIV-1 MDR drug-resistant strain
Test: MAGI assay using HeLa CD4/LTR-beta-Gal cells, drug-resistant strain MDR
Format: cell-based
Settings: Human immunodeficiency virus 1, HeLa, 48 h, read-out: Anti-HIV-1MDR activity (EC50, μM)
So basically, if EC50 comes in under 0.008 µM it's 1.0, and if it's 0.008 µM or more it's 0.0.

Sample answers from the record:
| molecule | assigned label |
| --- | --- |
| C#C[C@]1(CO)O[C@@H](n2cnc3c(N)nc(F)nc32)C[C@@H]1O | 1.0 |
| C#C[C@]1(CO)O[C@@H](n2cnc3c(N)ncnc32)C[C@@H]1O [EdAdo, 2′-deoxy-4′-C-ethynyladenosine, reference compound] | 1.0 |
| C#C[C@]1(CO)O[C@@H](n2cnc3c(N)nc(Cl)nc32)C[C@@H]1O | 0.0 |
| C#C[C@]1(CO[PH](=O)O)O[C@@H](n2cnc3c(N)nc(F)nc32)C[C@H]1O | 1.0 |
| N#C[C@]1(CO)O[C@@H](n2cnc3c(N)nc(F)nc32)C[C@@H]1O | 0.0 |

Alright, here's another molecule for you.
# input Find out if reported EC50 for C#C[C@@]1(CO)C=C[C@H](n2cnc3c(N)nc(F)nc32)O1 is less than 0.008 µM
# output 0.0

###

Test: MTT method using non-infected MT-4 cells (cytotoxicity)
Type: cell-based
Conditions: human
reported property: CC50 at 5 days (µM)
// note: answer is a bare numeric in µM

| molecule | uom | observed |
| --- | --- | --- |
| C#C[C@]1(CO)O[C@@H](n2cnc3c(N)nc(F)nc32)C[C@@H]1O [Compound 4, 2′-deoxy-4′-C-ethynyl-2-fluoroadenosine] | µM | 7.5 |

Now turn to the next molecule.
# input Which CC50 at 5 days is reported for this molecule? C#C[C@]1(CO)O[C@@H](n2cnc3c(N)ncnc32)C[C@@H]1O [EdAdo, 2′-deoxy-4′-C-ethynyladenosine, reference compound]
# output 16
